viability at 48 h, 26 µM by entry:
Assay: Cytotoxicity against LPS/IFNgamma-stimulated mouse RAW264.7 cells assessed as cell viability at 26 uM after 48 hrs by MTT method (reference value: 100 +/- 1.8%)
Assay type: cell-based
Details: LPS/IFNgamma-stimulated RAW264.7 cells, read-out: Activity
# output: bare number, implied unit %

Example cases with answers are listed next.
>  <Compound>
O=c1c(-c2ccc(O)cc2)coc2cc(OC[C@H]3O[C@H](O)[C@H](O)[C@@H](O)[C@H]3O)cc(O)c12

>  <Endpoint Unit>
%

>  <viability at 48 h, 26 µM>
95.8

$$$$
>  <Compound>
CO[C@H]1O[C@H](COc2ccc(-c3coc4cc(OC[C@H]5O[C@H](OC)[C@H](O)[C@@H](O)[C@@H]5O)cc(O)c4c3=O)cc2)[C@@H](O)[C@H](O)[C@H]1O

>  <Endpoint Unit>
%

>  <viability at 48 h, 26 µM>
92.2

$$$$
>  <Compound>
CO[C@H]1O[C@H](COc2ccc(-c3coc4cc(OC[C@H]5O[C@H](OC)[C@H](OC(C)=O)[C@@H](OC(C)=O)[C@@H]5OC(C)=O)cc(O)c4c3=O)cc2)[C@@H](OC(C)=O)[C@H](OC(C)=O)[C@H]1OC(C)=O

>  <Endpoint Unit>
%

>  <viability at 48 h, 26 µM>
101

$$$$
>  <Compound>
CC1(C)O[C@H]2[C@@H](O1)[C@@H](COc1cc(O)c3c(=O)c(-c4ccc(O)cc4)coc3c1)O[C@@H]1OC(C)(C)O[C@@H]12

>  <Endpoint Unit>
%

>  <viability at 48 h, 26 µM>
71.3

$$$$
>  <Compound>
CC1(C)O[C@H]2[C@@H](O1)[C@@H](COc1ccc(-c3coc4cc(OC[C@H]5O[C@@H]6OC(C)(C)O[C@@H]6[C@H]6OC(C)(C)O[C@H]65)cc(O)c4c3=O)cc1)O[C@@H]1OC(C)(C)O[C@@H]12

>  <Endpoint Unit>
%

>  <viability at 48 h, 26 µM>
94.4

$$$$
>  <Compound>
CO[C@H]1O[C@H](COc2cc(O)c3c(=O)c(-c4ccc(O)cc4)coc3c2)[C@@H](OC(C)=O)[C@H](OC(C)=O)[C@H]1OC(C)=O

>  <Endpoint Unit>
%

>  <viability at 48 h, 26 µM>
103

$$$$

Data request, read-out viability at 48 h, 26 µM, for O=c1c(-c2ccc(O)cc2)coc2cc(O)cc(O)c12 [GENISTEIN]
108

Moving on to CO[C@H]1O[C@H](COc2cc(O)c3c(=O)c(-c4ccc(O)cc4)coc3c2)[C@@H](O)[C@H](O)[C@H]1O
78.3
